experiment: Solubility in water at 2.4 pH; type: physicochemical; conditions: pH 2.4, read-out: S
metric: solubility (µg/mL)
Report the value in µg/mL with no unit label.

Return solubility for the following compound: `O=C(OCOP(=O)(O)O)Oc1ccc(Cl)cc1Cn1nc(-c2ccc(C(F)(F)F)cc2)oc1=O`
55

###

test: Volume distribution was determined; format: ADME, organism-based; conditions: rat, in vivo; read-out: Vdss
metric: Vd (L/kg)
Reply numerically in L/kg, unit not repeated.

Give Vd for the following molecule: `CS(=O)(=O)[O-].C[N+](C)(C)CCCC(=O)OCOc1ccc(Cl)cc1Cn1nc(-c2ccc(C(F)(F)F)cc2)oc1=O`
2.6

###

assay: Solubility in water at 7.2 pH; format: physicochemical; settings: pH 7.2, read-out: S
metric: solubility (mg/mL)
Respond numerically; units are mg/mL and should not be typed.

Name the recorded solubility of the compound listed here: `O=c1oc(-c2ccc(C(F)(F)F)cc2)nn1Cc1cc(Cl)ccc1OP(=O)(O)O`
14.6

###

In this section we review reported AUC values for a set of compounds.
test: Area under curve was determined; assay type: ADME, organism-based; details: rat, in vivo
Just the number in ng·h/mL, nothing appended.

Let me know recorded AUC for `CS(=O)(=O)[O-].C[N+](C)(C)CCCC(=O)OCOc1ccc(Cl)cc1Cn1nc(-c2ccc(C(F)(F)F)cc2)oc1=O` , thanks.
1260

Using known records, supply AUC for `O=c1oc(-c2ccc(C(F)(F)F)cc2)nn1Cc1cc(Cl)ccc1O`
52.4

###

assay: Plasma clearance was determined; format: ADME, organism-based; settings: rat
metric: clearance
# output: number + unit

Output clearance of `CS(=O)(=O)[O-].C[N+](C)(C)CCCC(=O)OCOc1ccc(Cl)cc1Cn1nc(-c2ccc(C(F)(F)F)cc2)oc1=O`
22.9 mL/min/kg

###

assay: Solubility in water at 4.2 pH; format: physicochemical; details: pH 4.2, read-out: S
metric: solubility (µg/mL)
A number alone suffices; assume µg/mL.

Tell us which solubility value is on record for `CS(=O)(=O)[O-].C[N+](C)(C)CC(=O)OCOc1ccc(Cl)cc1Cn1nc(-c2ccc(C(F)(F)F)cc2)oc1=O`
4500

###

assay: […] expressed as percentage of compound remains at 24 hr in PEG400/Water, 1:1; format: ADME, organism-based; settings: read-out: Prodrug remains
metric: remaining at 24 h

Some solved entries appear below for comparison.
smiles structure | remaining at 24 h
CS(=O)(=O)[O-].C[N+](C)(C)CC(=O)c1ccc(Cl)cc1Cn1nc(-c2ccc(C(F)(F)F)cc2)oc1=O | > 90%
CS(=O)(=O)[O-].C[N+](C)(C)CCCC(=O)Oc1ccc(Cl)cc1Cn1nc(-c2ccc(C(F)(F)F)cc2)oc1=O | > 90%
CS(=O)(=O)[O-].C[N+](C)(C)CCOC(=O)Oc1ccc(Cl)cc1Cn1nc(-c2ccc(C(F)(F)F)cc2)oc1=O | 72%
CS(=O)(=O)[O-].C[N+](C)(C)CCC(=O)Oc1ccc(Cl)cc1Cn1nc(-c2ccc(C(F)(F)F)cc2)oc1=O | > 90%

Turning now to a further record.
Return remaining at 24 h for the following compound: `CS(=O)(=O)[O-].C[N+](C)(C)CCCC(=O)OCOc1ccc(Cl)cc1Cn1nc(-c2ccc(C(F)(F)F)cc2)oc1=O`
> 97%

###

assay: Solubility in water at 7.0 pH; type: physicochemical; settings: pH 7, read-out: S
metric: solubility

Supply solubility value. Item: `O=c1oc(-c2ccc(C(F)(F)F)cc2)nn1Cc1cc(Cl)ccc1OCOP(=O)(O)O`
6100 µg/mL

###

organism: Rattus norvegicus; experiment: Percentage converted to BMS-191011 after 30 min incubation in rat plasma at 37 degree C; type: ADME, organism-based; conditions: 0.5 h
metric: Conversion

smiles structure | result
CS(=O)(=O)[O-].C[N+](C)(C)CCCC(=O)OCOc1ccc(Cl)cc1Cn1nc(-c2ccc(C(F)(F)F)cc2)oc1=O | > 80%
CS(=O)(=O)[O-].C[N+](C)(C)CCC(=O)Oc1ccc(Cl)cc1Cn1nc(-c2ccc(C(F)(F)F)cc2)oc1=O | 100%
CS(=O)(=O)[O-].C[N+](C)(C)CCCC(=O)Oc1ccc(Cl)cc1Cn1nc(-c2ccc(C(F)(F)F)cc2)oc1=O | 95%
CS(=O)(=O)[O-].C[N+](C)(C)CCOC(=O)Oc1ccc(Cl)cc1Cn1nc(-c2ccc(C(F)(F)F)cc2)oc1=O | 100%

Now for a further compound.
Respond only with Conversion recorded for `O=c1oc(-c2ccc(C(F)(F)F)cc2)nn1Cc1cc(Cl)ccc1OP(=O)(O)O`
0%
